Target: T1, human CD1a expressed on cells (human, UniProt P06126 17-327; P61769 21-119)
T1 construct: also called HEK - CD1a; C1R - CD1a
Assay: flow cytometry, C1R cells, 31.6 µg/ml antibody
measured_endpoint: Fluorescence Intensity Geomean (normalized to background) (fold over background)
Answers are plain numbers, in fold over background.

Some binders with known Fluorescence Intensity Geomean (normalized to background) results, for comparison:
1) 77A (VR11851) (antibody, V domains shown, also called OX77a; antibody 77a) VH: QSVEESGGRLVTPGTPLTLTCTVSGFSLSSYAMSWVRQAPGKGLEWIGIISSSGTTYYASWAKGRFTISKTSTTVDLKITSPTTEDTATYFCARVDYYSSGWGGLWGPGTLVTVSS VL: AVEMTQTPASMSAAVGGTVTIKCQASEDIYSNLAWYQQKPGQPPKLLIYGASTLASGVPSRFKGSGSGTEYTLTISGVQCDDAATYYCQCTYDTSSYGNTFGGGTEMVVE	1.3
2) 111 (VR12113) (antibody, V domains shown, also called OX111) VH: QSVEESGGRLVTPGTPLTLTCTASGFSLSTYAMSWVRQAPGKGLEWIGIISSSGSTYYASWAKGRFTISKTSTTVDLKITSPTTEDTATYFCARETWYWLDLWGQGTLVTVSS VL: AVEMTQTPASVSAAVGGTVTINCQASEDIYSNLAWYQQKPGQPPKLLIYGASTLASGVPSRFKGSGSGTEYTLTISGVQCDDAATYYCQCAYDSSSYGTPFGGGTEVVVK	7
3) 116 (VR12117) (antibody, V domains shown, also called OX116) VH: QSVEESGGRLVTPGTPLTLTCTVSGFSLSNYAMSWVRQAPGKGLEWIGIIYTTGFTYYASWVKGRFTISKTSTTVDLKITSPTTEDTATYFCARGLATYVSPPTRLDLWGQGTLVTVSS VL: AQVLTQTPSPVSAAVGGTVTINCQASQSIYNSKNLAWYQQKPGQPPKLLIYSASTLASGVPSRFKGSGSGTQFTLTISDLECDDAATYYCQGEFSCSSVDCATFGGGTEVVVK	13.7

Fill blank: measured Fluorescence Intensity Geomean (normalized to background) of the binder 110 (VR12112) (antibody, V domains shown, also called OX110; antibody 110) VH: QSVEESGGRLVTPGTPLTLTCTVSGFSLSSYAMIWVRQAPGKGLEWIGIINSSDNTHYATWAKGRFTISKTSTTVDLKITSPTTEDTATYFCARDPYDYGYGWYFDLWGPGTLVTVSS VL: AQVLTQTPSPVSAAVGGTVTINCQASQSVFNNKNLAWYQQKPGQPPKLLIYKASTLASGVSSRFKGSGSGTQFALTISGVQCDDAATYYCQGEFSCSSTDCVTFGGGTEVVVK is ____.
6.2
